TARGET_UNDER_TEST: T1, recombinant human PCSK9 (human, UniProt Q8NBP7 31-692)
T1 construct: also called hPCSK9
EXPERIMENTAL_PROTOCOL: TR-FRET in solution at neutral pH: biotinylated human PCSK9 (30 nM) binding to Europium labeled LDLR extracellular domain (10 nM) blocked by the mAb
METRIC_NAME: IC50 (nM)
// return numeric value only (unit: nM, not printed)

### Prompt Look up IC50 for this binder: anti-PCSK9 antagonist monoclonal antibody 4A5 (antibody, V domains shown, Murine full-length IgG from a hybridoma; also called 4A5.G3 (subclone); ATCC PTA-8985) VH: EVQLQQSGPELVKPGASVKISCKASGYTFTDYYMNWVKQSHGKSLEWIGDINPNNGGTTYNQKFKGKATLTVDKSYSTAYMELRSLTSEDSAVYYCARWLLFAYWGQGTLVTVSA VL: DIVMTQSQKFMSTSVGDRVSVTCKASQNVGTNVAWYQQKPGQSPKALIYSASYRYSGVPDRFTGSGSGTDFTLTISNVLSEDLAEYFCQQFYSYPYTFGGGTKLEIKR
### Response 7.1
